Where do these numbers come from? They come from patent US9388163B2.

System: bovine heart mitochondrial complex (I, III, IV)
Experiment: NADH oxidase inhibition assay (beef heart submitochondrial particles)
Assay type: biochemical
Conditions: l μM compound
measurement kind: NADH oxidase (complex I, III, IV) activity (%)

[
  {
    "item smiles": "C=Cc1c(C)n(O)c(C)c(CCCCCCCCCCCCCCCC)c1=O",
    "reported result": 20.1
  },
  {
    "item smiles": "CCCCCCCc1c(C)n(O)c(C)c(N)c1=O",
    "reported result": 92.9
  },
  {
    "item smiles": "CCCCCCCc1c(C)n(O)c(C)c(OC)c1=O",
    "reported result": 74.5
  },
  {
    "item smiles": "C=Cc1c(C)n(O)c(C)c(CCCCCCC)c1=O",
    "reported result": 29.7
  }
]
